Test system: cell lines carrying a TP53 genetic alteration (TP53 mutated/deleted)
Experiment: Cell viability cohort #2
Format: cell-based, human
Conditions: Homo sapiens, 72 h, read-out: average IC50
pIC50: −log10 of the molar value.
Test Readout: pIC50

CCOc1cc(C(C)(C)C)ccc1C1=N[C@@](C)(c2ccc(Cl)cc2)[C@@](C)(c2ccc(Cl)cc2)N1C(=O)N1CCN(CCCS(C)(=O)=O)CC1 :: 4.66

====

Tested on: 3731 MDM2_Amp/TP53_Wt cell line
Test: Cell viability of 3731 line, 72 h exposure
Format: cell-based, human
Details: Homo sapiens, read-out: mean IC50
pIC50: −log10 of the molar value.
Test Readout: pIC50

CCOc1cc(C(C)(C)C)ccc1C1=N[C@@](C)(c2ccc(Cl)cc2)[C@@](C)(c2ccc(Cl)cc2)N1C(=O)N1CCN(CCCS(C)(=O)=O)CC1 [RG7112] :: 6.30
